Test system: UACC-62 melanoma
Assay: NCI-60 one-dose screen, 48 h
Settings: 10 µM unless noted
This is part of a sample that, as a whole, favours compounds with a hit. Of some 83,000 tested, about 20% had one in any assay. Activity calls are given as the source filed them. How the source made its calls: active means growth percent below 10; inactive means the rest.
Just give me one of these, please: active, inactive

The following compounds have reported results that may help.
{"columns": ["compound", "label"],
 "data": [
  ["NC(N)=NC(N)=NCCCc1ccco1", "inactive"],
  ["O=[N+]([O-])c1ccc2[nH]c3nccc(NCc4cccc(Cl)c4)c3c2c1", "inactive"],
  ["O=C(N=Nc1c(O)[nH]c2ccccc12)Nc1ccc(Br)cc1", "inactive"]
]}

Inquiry: Please let me know the test result on file for Cc1ccc(-c2nc3nc(-c4ccccc4)nc(N4CCN(S(=O)(=O)c5ccccc5)CC4)c3o2)cc1 .
Reply text: inactive

Inquiry: Dear all, I need the recorded test outcome for Cc1nc2sc(C(=O)Nc3cccc4ncccc34)c(N)c2cc1C(C)O (stereo unspecified) , thank you.
Reply text: inactive

Inquiry: Hi, sorry to bother you, what did the test record for Clc1cccc(Nc2ncnc3ccc(-c4cncc(-n5cnnn5)c4)cc23)c1 ?
Reply text: inactive

Inquiry: How was C[C@@H]1CC[C@@H]2[C@@H]1[C@H](OC(=O)/C=C/c1ccccc1)[C@]1(c3ccccc3)C[C@@H](NC(=O)CO)[C@@]2(C)O1 classified in this test?
Reply text: inactive

Inquiry: Could you kindly confirm the outcome this assay logged for Cc1nc(-n2[nH]c(=O)ccc2=O)sc1N=Nc1ccccc1 ?
Reply text: inactive

Inquiry: What was the test verdict on COc1ccc(Nc2nn3c(SCC(=O)c4ccc(C)cc4)nnc3s2)cc1 ?
Reply text: inactive

----------
Items are presented alongside their recorded growth.
Test system: HOP-92 NSCLC
Assay: NCI-60 one-dose screen, 48 h (100 = growth as untreated, 0 = no growth, -100 = all killed)
Conditions: 10 µM unless noted
This is part of a sample that, as a whole, favours compounds with a hit. Of some 83,000 tested, about 20% had one in any assay.
The reply should be a number in %, with the unit left off.

Inquiry: Name the value of growth reported for COc1cc(/C=C/C(=O)c2ccc(NC(=O)CSc3nnc(-c4cc(-c5ccccc5)nc5ccccc45)n3-c3ccccc3)cc2)cc(OC)c1OC when tested on HOP-92 NSCLC.
Reply text: 88.6

Inquiry: State recorded growth with HOP-92 NSCLC, entry N=C1/C(=C2\NC3C=CC=CC3S2)C(c2ccc(Cl)cc2)C2C(=O)N(c3ccccc3)C(=S)N12 (centres undefined) , no comment.
Reply text: 102

Inquiry: Look up and report measured growth (HOP-92 NSCLC) for the following molecule: O=C(NNc1ccccc1)C1CCCN1 (centres undefined)
Reply text: 108

Inquiry: Find the measured growth of CC(C)(C)CC(N)=O with HOP-92 NSCLC as test system.
Reply text: 104

Inquiry: Report growth under test system HOP-92 NSCLC for O=C(N=Nc1c(O)[nH]c2ccccc12)Nc1ccc(Br)cc1 .
Reply text: 66.5

Inquiry: Report its growth with HOP-92 NSCLC as the test system: O=C1C(Nc2ccc(Cl)cc2)=C(I)C(=O)c2ncccc21
Reply text: -90.4

Inquiry: Give growth only, for OCc1cc(CN2CCCCC2)c(O)c2ncccc12 , using HOP-92 NSCLC data.
Reply text: 71.9

Inquiry: Recall the reported growth of Brc1ccc(/C=C(/C2=NCCN2)n2ccc3ccccc32)cc1 on HOP-92 NSCLC and write it down.
Reply text: 34.3

Inquiry: # assay system HOP-92 NSCLC: give growth of COc1cc(F)c(/C=C/c2cc(/C=C/c3cc(OC)c(OC)cc3F)n(-c3cc(F)cc(F)c3)n2)cc1OC
Reply text: 80.9
